Measured values drawn from ChEMBL document CHEMBL1201862 for this set.

# Test system: SNB-19
# METHOD: NCI tumour cell line growth inhibition, 48 h
Activity calls are given as the source filed them. Cut-off read from the data, not from the text of the source: active = GI50 up to about 1.1 µM and inactive = higher.
I would appreciate it if you answered using one of these outcomes: class 1 (active), class 0 (inactive)

Here are 8 compounds together with their reported answers.
Exercise: Recorded test call requested for "CC(=N/NC(=S)N1CCCCCC1)/C(C)=N\NC(=S)N1CCCCCC1"
Solution: class 0

Exercise: Recorded test call requested for "CCn1c(SCC(=O)N/N=C2\SCC(=O)N2c2ccc(C)cc2)nc2ccccc2c1=O"
Solution: class 0

Exercise: Recorded test call requested for CCOC(OCC)[C@@H]1C[C@@H]2N(O[C@H](OC3CCCC3(c3ccccc3)c3ccccc3)[C@H](OC(C)=O)[C@@]2(CC)Cc2ccc(OC)c(OC)c2)O1 (stereo not given in full)
Solution: class 0

Exercise: Recorded test call requested for CC1C2CC(C/C2=N/O)C1(C)C (stereo not given)
Solution: class 0

Exercise: Recorded test call requested for COc1cc2cc(C(=O)N3CC(CCl)c4c3cc(N)c3ccccc43)[nH]c2c(OC)c1OC (stereo not given)
Solution: class 1

Exercise: Recorded test call requested for "CC(C)(C)OC(=O)NCC(=O)N1CCCN(C(=O)CNC(=O)OC(C)(C)C)CC1"
Solution: class 0

Exercise: Recorded test call requested for "CC(C)Oc1cc(O)c2c(c1)OCC=C2CCC(=O)O"
Solution: class 0

Exercise: Recorded test call requested for "c1ccc(-c2cc(-c3ccccc3)nc(-c3ccncc3)c2)cc1"
Solution: class 0

Further cases:
Exercise: Recorded test call requested for "O=C(CN1CCOCC1)CC(O)(C(F)(F)F)C(F)(F)F"
Solution: class 0

Exercise: Recorded test call requested for CC(C)(C)C1=C(Br)C(F)(C(C)(C)C)OP1(=O)c1ccccc1 (stereo not given)
Solution: class 0

---

# Tested on: LXFL 529
# METHOD: NCI tumour cell line growth inhibition, 48 h
Activity calls are given as the source filed them. No stated cut-off is given here; in the data, active = GI50 up to about 1.1 µM and inactive = higher.
OBSERVABLE: GI50

Some compounds with known GI50 results, for comparison:
Exercise: Item "NC(=O)N/N=C(\Cc1nc2ccc(C(=O)c3ccccc3)cc2nc1O)C(=O)Nc1ccc(Br)cc1" : provide GI50
Solution: > 100 µM (inactive)

Exercise: Item "N/C(=N\O)N/N=C/c1cccs1" : provide GI50
Solution: 32.4 µM (inactive)

Exercise: Item C[N+](C)(C)CC1CCCC(C[N+](C)(C)C)C1O (stereo not given) : provide GI50
Solution: > 100 µM (inactive)

Exercise: Item "O=C(C[n+]1ccccc1)NNC(=O)/C(=C/c1ccc2c(c1)OCO2)NC(=O)c1ccccc1" : provide GI50
Solution: 38.7 µM (inactive)

Exercise: Item C/C(=N\NS(=O)(=O)c1ccc(C)cc1)C(CN(C)C)C(c1ccccc1)c1c(O)c2ccccc2oc1=O (stereo not given) : provide GI50
Solution: > 100 µM (inactive)

Exercise: Item COc1cc(Cn2c3ccccc3c3cc(C)c4c(c32)C=CC(C)(CCC=C(C)C)O4)cc2c1[nH]c1ccccc12 (stereo not given) : provide GI50
Solution: 88.5 µM (inactive)

Exercise: Item O=C(NC1CCCCCC1)C1C(=O)N(C2CCCCCC2)C(=O)/C1=N\O (stereo not given) : provide GI50
Solution: 31.8 µM (inactive)

Exercise: Item CCN(CC)C(=O)C(C)n1cc(C)c(=O)[nH]c1=O (stereo not given) : provide GI50
Solution: > 100 µM (inactive)

Further cases:
Exercise: Item "Nn1c(S)nnc1N/N=C1/C(=O)Nc2c(Cl)cc(Cl)cc21" : provide GI50
Solution: 59.7 µM (inactive)

Exercise: Item "C/C=C1\C=C(OC)CN(CCc2c[nH]c3ccccc23)C1" : provide GI50
Solution: 9.4 µM (inactive)
